Reference for the values: patent US6441133B1

Reported pIC50 by item:
- measurement.target: TRHR-2 (Rattus norvegicus, UniProt A6IZR3)
- Construct: expressed in transfected cells; host or cells: HEK293s
- Sequence (A6IZR3 1-352): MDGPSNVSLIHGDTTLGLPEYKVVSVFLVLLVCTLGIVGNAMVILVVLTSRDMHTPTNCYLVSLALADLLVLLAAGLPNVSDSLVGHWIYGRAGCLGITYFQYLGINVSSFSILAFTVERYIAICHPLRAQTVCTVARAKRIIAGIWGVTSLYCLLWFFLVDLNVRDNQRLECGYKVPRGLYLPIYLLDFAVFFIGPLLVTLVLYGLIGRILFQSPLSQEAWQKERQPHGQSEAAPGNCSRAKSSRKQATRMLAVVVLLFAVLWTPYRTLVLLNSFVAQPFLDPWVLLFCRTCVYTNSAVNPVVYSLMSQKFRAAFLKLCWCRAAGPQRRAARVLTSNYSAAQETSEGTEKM
- test.description: 3H-TRH radioligand binding on whole HEK293s cells stably expressing TRHR-2
- test.parameters: HEK 293 cells expressing TRHR-2; read-out: IC50 in competition with 3H-TRH as tracer
pIC50: −log10 of the molar value. Where a SMILES comes first, the peptide text is derived from it. [ ]: non-standard residue; d: D form. pGlu = O=C1CC[C@@H](C(=O)O)N1
reported.endpoint: pIC50

molecule	reported.endpoint	result.modifier	quantitative.readout
Cn1cnc(C[C@H](NC(=O)[C@@H]2CCC(=O)N2)C(=O)N2CCC[C@H]2C(N)=O)c1 [pGlu-3-methyl-His-Pro-amide]	pIC50	=	8.66
O=C(O)CNC(=O)[C@@H]1CCCN1C(=O)[C@H](Cc1c[nH]cn1)NC(=O)[C@@H]1CCC(=O)N1 [pGlu-His-Pro-Gly] ([pGlu]HPG-OH; C-terminus assumed)	pIC50	=	6.19
NC(=O)[C@@H]1CCCN1C(=O)[C@H](Cc1cnc[nH]1)NC(=O)[C@@H]1CCC(=O)N1	pIC50	=	8.08
NC(=O)[C@@H]1CCCN1C(=O)[C@H](CCC(=O)O)NC(=O)[C@@H]1CCC(=O)N1 [pGlu-Glu-Pro-amide] ([pGlu]-Glu-Pro-NH2)	pIC50	<	5.00

* * *

Reported IC50 by item:
- measurement.target: TRH receptor (TRHR-1) of GH4C1 cells (Rattus norvegicus, UniProt Q01717)
- Construct: endogenous in cells
- Sequence (Q01717 whole entry): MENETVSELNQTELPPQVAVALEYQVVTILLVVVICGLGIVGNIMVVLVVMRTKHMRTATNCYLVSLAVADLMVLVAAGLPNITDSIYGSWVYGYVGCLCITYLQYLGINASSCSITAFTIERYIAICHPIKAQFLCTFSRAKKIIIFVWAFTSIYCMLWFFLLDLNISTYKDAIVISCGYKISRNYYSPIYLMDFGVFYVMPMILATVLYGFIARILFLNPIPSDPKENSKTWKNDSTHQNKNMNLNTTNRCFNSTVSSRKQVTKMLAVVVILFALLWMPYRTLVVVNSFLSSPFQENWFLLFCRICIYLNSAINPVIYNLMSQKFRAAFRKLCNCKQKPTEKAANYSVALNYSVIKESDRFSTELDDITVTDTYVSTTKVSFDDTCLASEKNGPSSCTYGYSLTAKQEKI
- test.description: 3H-TRH radioligand binding on GH4C1 cells
- test.parameters: GH4C1 cells; three independent experiments
Where a SMILES comes first, the peptide text is derived from it. [ ]: non-standard residue; d: D form. pGlu = O=C1CC[C@@H](C(=O)O)N1
reported.endpoint: IC50 (nM)

molecule	measurement.target	unit.text	result.modifier	quantitative.readout
Cn1cnc(C[C@H](NC(=O)[C@@H]2CCC(=O)N2)C(=O)N2CCC[C@H]2C(N)=O)c1 [pGlu-3-methyl-His-Pro-amide]	TRH receptor (TRHR-1) of GH4C1 cells (Rattus norvegicus, UniProt Q01717)	nM	=	0.43
NC(=O)[C@@H]1CCCN1C(=O)[C@H](Cc1cnc[nH]1)NC(=O)[C@@H]1CCC(=O)N1	TRH receptor (TRHR-1) of GH4C1 cells (Rattus norvegicus, UniProt Q01717)	nM	=	5.33
NC(=O)[C@@H]1CCCN1C(=O)[C@H](CCC(=O)O)NC(=O)[C@@H]1CCC(=O)N1 [pGlu-Glu-Pro-amide] ([pGlu]-Glu-Pro-NH2)	TRH receptor (TRHR-1) of GH4C1 cells (Rattus norvegicus, UniProt Q01717)	nM	>	10000
O=C(O)CNC(=O)[C@@H]1CCCN1C(=O)[C@H](Cc1c[nH]cn1)NC(=O)[C@@H]1CCC(=O)N1 [pGlu-His-Pro-Gly] ([pGlu]HPG-OH; C-terminus assumed)	TRH receptor (TRHR-1) of GH4C1 cells (Rattus norvegicus, UniProt Q01717)	nM	>	10000
